Reference for the values: patent US5690906A

Molecular target: D3 dopamine receptor (Rattus norvegicus, UniProt P19020)
Construct: made in house; host or cells: Sf9 insect cells infected with recombinant baculovirus AcMNPVrD3, membrane homogenates
Sequence (P19020 whole entry): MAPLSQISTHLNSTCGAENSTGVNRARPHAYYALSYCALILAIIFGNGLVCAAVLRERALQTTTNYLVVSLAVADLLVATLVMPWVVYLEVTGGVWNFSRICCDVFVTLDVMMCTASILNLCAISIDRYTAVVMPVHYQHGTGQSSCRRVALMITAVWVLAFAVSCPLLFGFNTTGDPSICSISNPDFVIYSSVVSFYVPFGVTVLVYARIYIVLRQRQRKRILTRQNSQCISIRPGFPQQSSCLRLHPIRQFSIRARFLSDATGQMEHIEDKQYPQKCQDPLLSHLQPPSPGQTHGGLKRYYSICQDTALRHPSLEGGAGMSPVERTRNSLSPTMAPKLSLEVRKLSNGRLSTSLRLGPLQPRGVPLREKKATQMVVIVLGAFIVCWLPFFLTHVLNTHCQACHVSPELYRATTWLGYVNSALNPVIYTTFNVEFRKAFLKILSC
Test: Inhibition of [^125 I]NCQ298 binding to D3 dopamine receptors expressed in Sf9 cells
Measured property: log10 of Ki (log10 of the value in nM)
Lab note - Ki converted to log10 from values in nM.

Past entries and their recorded results:
| Compound | log10 of Ki |
| --- | --- |
| CCCN(CCC)C1CCc2ccc(OC)cc2C1 (centres unmarked) [7-MeO-DPAT, 7Methoxy-2-N,N-n-Dipropylaminotetralin] | 2.45 |
| C#CCN(CCC)C1CCc2ccc(O)cc2C1 (centres unmarked) [7-OH-PPAT] | 0.96 |
| CCCN(CCC)C1CCc2ccc(O)c(I)c2C1 (centres unmarked) [8-I-7-OH-DPAT] | 1.33 |
| CCCNC1CCc2ccc(O)cc2C1 (centres unmarked) [7-OH-MPAT, 7Hydroxy-2-N-n-Propylaminotetralin] | 0.51 |

Now let's try a different one.
Input: For CCCNC1CCc2ccc(OC)cc2C1 (centres unmarked) [7-MeO-MPAT, 7Methoxy-2-N-n-Propylaminotetralin] , what is its reported log10 of Ki?
Output: 3.12

---

Molecular target: D2 dopamine receptor (Rattus norvegicus)
Construct: made in house; host or cells: Sf9 insect cells infected with recombinant baculovirus (AcMNPVrD2L or AcMNPVrD2S), membrane homogenates
Sequence (P61169 whole entry): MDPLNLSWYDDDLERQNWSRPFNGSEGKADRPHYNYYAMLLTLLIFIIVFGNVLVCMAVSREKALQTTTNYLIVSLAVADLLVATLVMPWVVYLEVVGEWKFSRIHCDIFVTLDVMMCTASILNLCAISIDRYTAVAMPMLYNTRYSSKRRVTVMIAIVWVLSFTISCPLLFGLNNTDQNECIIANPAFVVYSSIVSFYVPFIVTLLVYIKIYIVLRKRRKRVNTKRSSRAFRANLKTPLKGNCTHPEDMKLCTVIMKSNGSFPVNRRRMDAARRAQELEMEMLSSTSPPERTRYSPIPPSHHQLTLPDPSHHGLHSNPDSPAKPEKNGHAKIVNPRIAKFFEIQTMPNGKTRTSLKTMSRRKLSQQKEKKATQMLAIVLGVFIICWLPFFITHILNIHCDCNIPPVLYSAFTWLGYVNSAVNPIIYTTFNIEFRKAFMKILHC
Assay: Inhibition of [^125 I]NCQ298 binding to D2 dopamine receptors expressed in Sf9 cells
Recorded measurements of Ki, one per entry
# number only, unit µM dropped from output

| Compound | Measurement unit | Ki |
| --- | --- | --- |
| CCCNC1CCc2ccc(OC)cc2C1 (centres unmarked) | µM | 5.18 |

Switching to the query record.
Input: // returns reported Ki for input CCCN(CCC)C1CCc2ccc(OC)cc2C1 (centres unmarked)
Output: 2.17

---

Target: D3 dopamine receptor (Rattus norvegicus, UniProt P19020)
Construct: made in house; host or cells: Sf9 insect cells infected with recombinant baculovirus AcMNPVrD3, membrane homogenates
Assay: Inhibition of [^125 I]NCQ298 binding to D3 dopamine receptors expressed in Sf9 cells
Conditions: Table 4; Hill coefficient
Measured property: HC D3
// return a plain number; no unit text

| Molecule | Measured property | Observed result |
| --- | --- | --- |
| CCCN(CCC)C1CCc2ccc(OC)cc2C1 (stereo not drawn) | HC D3 | 0.98 |

Input: Requested field: HC D3. Item: Oc1ccc2c(c1)CC(NCc1ccccc1)CC2 (stereo not drawn) [7-OH-BAT, 7Hydroxy-2-N-n-Benzylaminotetralin]
Output: 1.00

Input: // next record C#CCN(CCC)C1CCc2ccc(O)cc2C1 (stereo not drawn)
Output: 0.80

Input: Repeat with COc1ccc2c(c1)CC(NCc1ccccc1)CC2 (stereo not drawn)
Output: 0.80

Input: Also CCCN(C/C=C/I)C1CCc2ccc(OC)cc2C1 (stereo not drawn) , if possible.
Output: 0.93

Input: Try the molecule CCCN(CCC)C1CCc2ccc(O)cc2C1 (stereo not drawn) [7-OH-DPAT, 7Hydroxy-2-N,N-n-Dipropylaminotetralin, reference compound]
Output: 0.85

Input: Also need CCCN(CCC)C1CCc2ccc(O)c(I)c2C1 (stereo not drawn) , thanks.
Output: 0.85

Input: Check CCCNC1CCc2ccc(O)cc2C1 (stereo not drawn) [7-OH-MPAT, 7Hydroxy-2-N-n-Propylaminotetralin] too.
Output: 0.80

Input: One more molecule: CCCNC1CCc2ccc(OC)cc2C1 (stereo not drawn)
Output: 0.97
